- test: budding yeast growth modifiers under rapamycin – strain BY4716, OD600, 96 h, primary screen (AID 1091); note: test concentration not given here
- conditions: S. cerevisiae BY4716 + rapamycin, higher = more signal, called active from +8 up or from −8 down
quantityName: z-score

CC(=O)Nc1cc(Br)ccc1C(=O)NCc1ccccc1; -1.98
COc1ccc(C(=O)Nc2cccc(CN3C(=O)[C@]4(O[C@H](CCn5cc(CCO)nn5)[C@@H]([Si](C)(C)c5ccc(OC)cc5)[C@@H]4C)c4ccccc43)c2)cc1; 1.15
O=c1cccc(-c2ccccc2Cl)o1; 2.12
NC(=O)N1C(=O)C2C(C1=O)C1C=C(CCCO)C2C(C2CC2)N1Cc1cc2c(cc1Br)OCO2 (stereo not drawn); -1.22
COc1ccc([C@H]2C[C@H]3C(I)=C[C@@H]2C(=O)[C@]32CO2)cc1; -1.79
CN(C)CCCCCCNC(=O)[C@@H]1C[C@@H]2C(=O)N3CCC[C@H]3C(=O)N2[C@@H]1c1ccc(O)cc1; -0.982
CCOC(=O)C1=CC[C@@H](c2ccc(C(F)(F)F)cc2)N(S(=O)(=O)c2ccc(C)cc2)[C@H]1c1ccccc1; 0.363
COCCCNC(=O)[C@@]1(Cc2ccccc2CN=[N+]=[N-])N=C(c2ccc(OCCCO)cc2)O[C@H]1c1ccccc1CN=[N+]=[N-]; 26.7

* * *

- Test system: Lefty1
- test: Lefty1 protein binding to printed compounds – biochemical, small-molecule microarray, 635/667 nm fluorescence, primary screen (AID 1139)
- conditions: fluorescence 635/667, higher = more signal
Examples of molecules with documented composite z-score follow.
quantityName: composite z-score

[N-]=[N+]=NCc1ccccc1[C@@H]1OC(c2ccc(OCCCO)cc2)=N[C@]1(CCS(=O)(=O)c1ccccc1)C(=O)N1CCCCC1; 0.275
CC(C)Cc1ccc(CN2CC[C@@H](N)C2)cc1; 0.0735
C[N+](C)(C)CCCC[C@@H]1NC(=O)[C@@H]2C[C@H](C(=O)NCCCCCCNC(=O)CS)[C@H](c3ccc(O)cc3)N2C1=O; -0.237
C=CCNC(=O)[C@@H]1[C@H]2C(=O)O[C@H](c3ccccc3)[C@H](c3ccccc3)N2[C@H](c2ccc(OCCO)cc2)[C@@]12C(=O)N(C(=O)OCCOC)c1ccc(C#CCC(C(=O)OC)C(=O)OC)cc12; 0.991

* * *

Examples of compounds with documented z-score follow.
- test: compound effects on hepatocellular carcinoma cell viability – HepG2, calcein-AM fluorescence, 48 h, basal, profiling panel (AID 1164); note: test concentration not given here
- conditions: higher = more signal
quantityName: z-score

N#Cc1ccc(C(O)C2C=CC3C(=O)N(c4ccccc4)C(=O)C3N2Nc2ccccc2F)cc1 (centres undefined); -0.245
O=C1N(CCS(=O)(=O)c2ccccc2)c2ccccc2[C@@H]2OC(c3ccc(OCCCO)cc3)=N[C@]12Cc1ccccc1; 0.993
COCCOC(=O)N1C(=O)[C@@]2(c3cc(C#CC4=CCCCC4)ccc31)[C@H](C(N)=O)[C@H]1C(=O)O[C@H](c3ccccc3)[C@H](c3ccccc3)N1[C@@H]2c1ccc(O)cc1; 0.581
CS(=O)(=O)CCOC(=O)C1=CC(CCCO)=CC(c2ccc(CN3CCCC3)cc2)N(Cc2cccc(OC(F)(F)F)c2)C=C1C(=O)OCCS(C)(=O)=O (centres undefined); 1.81
COC(=O)[C@@]1(Cc2ccc(OC)cc2)[C@H]2c3cc(C(=O)N4CCCC4)n(CCCNc4ncc(C(F)(F)F)cc4Cl)c3C[C@H]2CN1C(=O)c1ccccc1; -0.841
COCCOC(=O)N1C(=O)[C@@]2(c3cc(C#CC4(O)CCCCCC4)ccc31)[C@H](c1ccccc1OCCO)N1[C@H](c3ccccc3)[C@H](c3ccccc3)OC(=O)[C@H]1[C@@H]2C(=O)N1CCc2cc(OC)c(OC)cc2C1; -0.011
COCCOC(=O)N1C(=O)[C@@]2(c3ccccc31)[C@H](C(=O)N1CCCCCCC1)[C@H]1C(=O)O[C@H](c3ccccc3)[C@H](c3ccccc3)N1[C@@H]2c1ccc(OCCO)cc1; -0.265
COCCCNC(=O)[C@]1(Cc2ccccc2)N=C(c2ccc(OCCCO)cc2)O[C@@H]1c1ccccc1CN=[N+]=[N-]; 1.57
CC(C)NC(=O)[C@@]1(Cc2ccccc2I)c2ccccc2C(=O)N(Cc2ccccc2Cl)[C@H]1c1ccc(CO)cc1; 0.768
O=C(NCCN1CCOCC1)[C@@H]1c2ccccc2C(=O)N(Cc2cc(C(F)(F)F)cc(C(F)(F)F)c2)[C@H]1c1ccc(CO)cc1; 1.82
COc1ccc([Si](C)(C)[C@@H]2[C@@H](CCn3cc(CCO)nn3)O[C@]3(C(=O)N(Cc4cccc(N5C(=O)c6cccc7cccc5c67)c4)c4ccccc43)[C@H]2C)cc1; -4.46
C=CC[C@]1(C(N)=O)COC(c2ccc(OCCCO)cc2)=N1; 0.0717
C=C(CCCC)C(=O)CC[C@H](OC(=O)c1cccnc1)c1ccc(OCCO)cc1; -0.478
[N-]=[N+]=NCc1ccccc1[C@H]1OC(c2ccc(OCCCO)cc2)=N[C@@]1(Cc1ccccc1)C(=O)N1CCCCC1; 0.505

Data origin, for the record: PubChem BioAssay
